# MIC annotations
System: C3H/3T3 cells
Experiment: Microscopic alteration of C3H/3T3 cell culture morphology
Type: cell-based, murine
Conditions: concentration that results in a microscopic alteration of C3H/3T3 cell culture morphology

molecule	MIC
C[C@@H](Cn1cnc2c(=O)[nH]c(N)nc21)OCP(=O)(O)O [(S)-PMPG, 9-(S)-(2-Phosphonomethoxypropyl)guanine]	8 µg/mL
Nc1nc(N)c2ncn(C[C@H](CF)OCP(=O)(O)O)c2n1 [(R)-FPMPDAP, reference compound]	>100 µg/mL
Nc1ncnc2c1ncn2C[C@H](CF)OCP(=O)(O)O [(R)-FPMPA, reference compound]	>100 µg/mL
C[C@@H](Cn1cnc2c(N)ncnc21)OCP(=O)(O)O [(S)-PMPA, 9-(S)-(2-Phosphonomethoxypropyl)adenine]	>100 µg/mL
C[C@H](Cn1cnc2c(N)ncnc21)OCP(=O)(O)O [(R)-PMPA, 9-(R)-(2-Phosphonomethoxypropyl)adenine]	>100 µg/mL
C[C@H](Cn1cnc2c(=O)[nH]c(N)nc21)OCP(=O)(O)O [(R)-PMPG]	40 µg/mL

Which MIC is listed for C[C@H](Cn1cnc2c(N)nc(N)nc21)OCP(=O)(O)O [(R)-PMPDAP] ?
>100 µg/mL

Which MIC is listed for C[C@@H](Cn1cnc2c(N)nc(N)nc21)OCP(=O)(O)O [(S)-PMPDAP] ?
>100 µg/mL

----------
Test system: HIV-1
Assay: HIV-1 induced cytopathicity in MT-4 cells
Type: cell-based, human immunodeficiency virus type 1
Settings: MT-4 cells; concentration inhibiting HIV-induced cytopathicity by 50%
Please note: EC50 HIV-1 exactly at 2 µg/mL is Condition not met. Only values below 2 µg/mL get Condition met.

A record lists Nc1ncnc2c1ncn2C[C@H](CF)OCP(=O)(O)O [(R)-FPMPA, reference compound] . Is its EC50 HIV-1 below 2 µg/mL?
Condition not met

----------
# EC50 HIV-2 annotations
System: HIV-2
Experiment: HIV-2 induced cytopathicity in MT-4 cells
Assay type: cell-based, human immunodeficiency virus type 2
Details: MT-4 cells; concentration inhibiting HIV-induced cytopathicity by 50%
Number first, unit second: that is the form wanted.

Some solved entries appear below for comparison.
molecule	result
C[C@H](Cn1cnc2c(=O)[nH]c(N)nc21)OCP(=O)(O)O [(R)-PMPG]	1.7 µg/mL
Nc1nc(N)c2ncn(C[C@H](CF)OCP(=O)(O)O)c2n1 [(R)-FPMPDAP, reference compound]	1.5 µg/mL
Nc1ncnc2c1ncn2C[C@@H](CF)OCP(=O)(O)O [(S)-FPMPA]	2.6 µg/mL
Nc1nc(N)c2ncn(C[C@@H](CF)OCP(=O)(O)O)c2n1 [(S)-FPMPDAP]	3.3 µg/mL
C[C@@H](Cn1cnc2c(N)nc(N)nc21)OCP(=O)(O)O [(S)-PMPDAP]	4.0 µg/mL
Nc1ncnc2c1ncn2C[C@H](CF)OCP(=O)(O)O [(R)-FPMPA, reference compound]	54 µg/mL

Which EC50 HIV-2 is listed for C[C@@H](Cn1cnc2c(N)ncnc21)OCP(=O)(O)O [(S)-PMPA, 9-(S)-(2-Phosphonomethoxypropyl)adenine] ?
63 µg/mL

Which EC50 HIV-2 is listed for C[C@H](Cn1cnc2c(N)nc(N)nc21)OCP(=O)(O)O [(R)-PMPDAP] ?
0.06 µg/mL

Which EC50 HIV-2 is listed for C[C@@H](Cn1cnc2c(=O)[nH]c(N)nc21)OCP(=O)(O)O [(S)-PMPG, 9-(S)-(2-Phosphonomethoxypropyl)guanine] ?
1.3 µg/mL

----------
Test system: Moloney murine sarcoma virus (MSV)
Assay: MSV infection in newborn NMRI mice, intraperitoneal administration
Assay type: in vivo
Conditions: 50 mg/kg single dose i.p.
readout.type: percentage of MSV-infected mice without tumor at day 20 post infection

molecule	experimental.target	result
Nc1ncnc2c1ncn2C[C@@H](CF)OCP(=O)(O)O [(S)-FPMPA]	Moloney murine sarcoma virus (MSV)	(100%)
C[C@H](Cn1cnc2c(N)ncnc21)OCP(=O)(O)O [(R)-PMPA, 9-(R)-(2-Phosphonomethoxypropyl)adenine]	Moloney murine sarcoma virus (MSV)	(100%)
Nc1ncnc2c1ncn2CCOCP(=O)(O)O	Moloney murine sarcoma virus (MSV)	(90%)
Nc1nc(N)c2ncn(C[C@@H](CF)OCP(=O)(O)O)c2n1 [(S)-FPMPDAP]	Moloney murine sarcoma virus (MSV)	(17%)

----------
# CC50 annotations
System: MT-4 cells
Test: MT-4 cell viability (cytotoxicity)
Assay type: cell-based, human
Details: concentration reducing MT-4 cell viability by 50%

compound	readout.type	result
Nc1ncnc2c1ncn2C[C@H](CF)OCP(=O)(O)O [(R)-FPMPA, reference compound]	CC50	>100 µg/mL

Which CC50 is listed for Nc1nc(N)c2ncn(C[C@@H](CF)OCP(=O)(O)O)c2n1 [(S)-FPMPDAP] ?
>100 µg/mL

Which CC50 is listed for C[C@H](Cn1cnc2c(N)ncnc21)OCP(=O)(O)O [(R)-PMPA, 9-(R)-(2-Phosphonomethoxypropyl)adenine] ?
>100 µg/mL

Which CC50 is listed for C[C@@H](Cn1cnc2c(N)nc(N)nc21)OCP(=O)(O)O [(S)-PMPDAP] ?
>100 µg/mL

Which CC50 is listed for Nc1ncnc2c1ncn2CCOCP(=O)(O)O ?
67 µg/mL

----------
System: HIV-1
Experiment: HIV-1 induced cytopathicity in MT-4 cells
Format: cell-based, human immunodeficiency virus type 1
Conditions: MT-4 cells; concentration inhibiting HIV-induced cytopathicity by 50%
readout.type: EC50 HIV-1

Some solved entries appear below for comparison.
molecule	experimental.target	result
C[C@H](Cn1cnc2c(N)ncnc21)OCP(=O)(O)O [(R)-PMPA, 9-(R)-(2-Phosphonomethoxypropyl)adenine]	HIV-1	1.7 mg/L
Nc1nc(N)c2ncn(C[C@H](CF)OCP(=O)(O)O)c2n1 [(R)-FPMPDAP, reference compound]	HIV-1	1.4 mg/L
C[C@H](Cn1cnc2c(=O)[nH]c(N)nc21)OCP(=O)(O)O [(R)-PMPG]	HIV-1	1.8 mg/L

Could you now look at the following molecule, please?
Which EC50 HIV-1 is listed for C[C@@H](Cn1cnc2c(=O)[nH]c(N)nc21)OCP(=O)(O)O [(S)-PMPG, 9-(S)-(2-Phosphonomethoxypropyl)guanine] ?
1.2 mg/L

----------
System: C3H/3T3 cells
Assay: Microscopic alteration of C3H/3T3 cell culture morphology
Assay type: cell-based, murine
Conditions: concentration that results in a microscopic alteration of C3H/3T3 cell culture morphology
readout.type: MIC

Some solved entries appear below for comparison.
compound	MIC
Nc1nc(N)c2ncn(C[C@@H](CF)OCP(=O)(O)O)c2n1 [(S)-FPMPDAP]	>100 µg/mL
Nc1ncnc2c1ncn2CCOCP(=O)(O)O	>100 µg/mL

Could you now look at the following compound, please?
Which MIC is listed for Nc1ncnc2c1ncn2C[C@@H](CF)OCP(=O)(O)O [(S)-FPMPA] ?
>100 µg/mL

----------
Test system: Moloney murine sarcoma virus (MSV)
Test: MSV infection in newborn NMRI mice, intraperitoneal administration
Format: in vivo
Settings: 50 mg/kg single dose i.p., NMRI mice
readout.type: Mean day of tumor initiation (days)
Answer in days, number only, no unit symbol.

compound	recorded.number
Nc1nc(N)c2ncn(C[C@H](CF)OCP(=O)(O)O)c2n1 [(R)-FPMPDAP, reference compound]	7.75

Which Mean day of tumor initiation is listed for Nc1ncnc2c1ncn2C[C@H](CF)OCP(=O)(O)O [(R)-FPMPA, reference compound] ?
4.7

Which Mean day of tumor initiation is listed for Nc1nc(N)c2ncn(C[C@@H](CF)OCP(=O)(O)O)c2n1 [(S)-FPMPDAP] ?
11.0

Which Mean day of tumor initiation is listed for C[C@@H](Cn1cnc2c(N)ncnc21)OCP(=O)(O)O [(S)-PMPA, 9-(S)-(2-Phosphonomethoxypropyl)adenine] ?
5.8

Which Mean day of tumor initiation is listed for Nc1ncnc2c1ncn2CCOCP(=O)(O)O [PMEA] ?
9.0

----------
Tested on: Moloney murine sarcoma virus (MSV)
Assay: MSV infection in newborn NMRI mice, intraperitoneal administration
Assay type: in vivo
Settings: 20 mg/kg single dose i.p.
Procedure: Two gram newborn NMRI mice were injected intramuscularly in the left hind leg with 50 μl of 250-fold diluted stock preparation of Moloney murine sarcoma virus. […] Another group of mice (20 animals) was administered RPMI-1640 medium as placebo. All compounds were solubilized in RPMI-1640 medium. The mice were observed daily for 20 days and the day of tumor initiation and the day of animal death was recorded for each animal. Statistical analyses were performed by calculating the standard deviation.
readout.type: percentage of MSV-infected mice without tumor at day 20 post infection

molecule	result
Nc1ncnc2c1ncn2C[C@@H](CF)OCP(=O)(O)O [(S)-FPMPA]	(31%)
Nc1ncnc2c1ncn2CCOCP(=O)(O)O	(44%)
C[C@H](Cn1cnc2c(N)ncnc21)OCP(=O)(O)O [(R)-PMPA, 9-(R)-(2-Phosphonomethoxypropyl)adenine]	(80%)
